experiment-description: in vitro
condition-set: human, Caco-2
reported-endpoint: Papp A→B at 4 h, 1 mM
Don't forget the unit after the number, please.

For the compound shown here, "CC(C)[C@H](NC(=O)CC[C@H](N)C(=O)O)C(=O)O" , give the reported Papp A→B at 4 h, 1 mM.
0.678 ×10⁻⁶ cm/s

====

experiment-description: in vitro
Assay type: in vitro ADME, human
condition-set: human, Caco-2, Papp after TF3′G pretreatment
reported-endpoint: Papp at 2 h, 1 mM (×10⁻⁶ cm/s)
A number alone suffices; assume ×10⁻⁶ cm/s.

For the molecule shown here, CC(C)[C@H](NC(=O)CC[C@H](N)C(=O)O)C(=O)O [γ-EV, γ-glutamyl valine] , give the reported Papp at 2 h, 1 mM.
0.875

Data credit: paper PMC8145144
